# Tested System: Cannabinoid receptor 2 (Homo sapiens)
# Sequence (P34972 whole entry): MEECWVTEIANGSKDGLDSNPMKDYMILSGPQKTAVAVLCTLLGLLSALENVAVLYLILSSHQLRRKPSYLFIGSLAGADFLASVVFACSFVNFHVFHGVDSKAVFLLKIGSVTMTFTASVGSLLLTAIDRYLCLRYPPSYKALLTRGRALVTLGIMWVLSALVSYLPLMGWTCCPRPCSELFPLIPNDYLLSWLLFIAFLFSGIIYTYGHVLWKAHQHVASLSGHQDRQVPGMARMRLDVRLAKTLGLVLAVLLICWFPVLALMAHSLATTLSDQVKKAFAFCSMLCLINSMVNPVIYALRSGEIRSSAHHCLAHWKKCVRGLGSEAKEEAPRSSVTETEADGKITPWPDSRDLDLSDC
# Procedure Details: Agonist activity at human CB2 receptor expressed in CHO cells assessed as inhibition of forskolin-induced cAMP production
Endpoint Label: pIC50
The scale used: pIC50 is minus the common logarithm of the concentration in molar units.

CCCCn1c2c(cc(C(=O)NCc3ccccc3)c1=O)CCCC2 | 7.77
CCCCn1c2c(cc(C(=O)NC(C)(C)c3ccccc3)c1=O)CCCCCC2 | 9.70

Next, consider the following molecule.
In: Query pIC50 for CCCCn1c2c(cc(C(=O)NC(C)C)c1=O)CCCCCC2
Out: 8.60

====

# Procedure Details: Cmax in mouse at 30 mg/kg, po
# Type: ADME, organism-based
# Parameters: dose 30 mg/kg, route oral
# Measurement Context: in vivo
Endpoint Label: Cmax

In: Query Cmax for CCCCn1c2c(cc(C(=O)NCc3ccccc3)c1=O)CCCCCC2
Out: 168 ng/mL

====

# Procedure Details: Half life in mouse at 1 mg/kg, iv
# Type: ADME, organism-based
# Parameters: dose 1 mg/kg, route intravenous
# Measurement Context: in vivo
Endpoint Label: half-life (min)
# output: bare number, implied unit min

In: Query half-life for CCCCn1c2c(cc(C(=O)NC3CCCCC3)c1=O)CCCCCC2
Out: 18

====

Form field: Ratio Ki (one value per entry).
# Organism: Homo sapiens
# Procedure Details: Selectivity ratio of Ki for human CB1 receptor to Ki for human CB2 receptor
Hey, just send me the number, nothing else.

CC(C)CCn1c2c(cc(C(=O)NCc3ccccc3)c1=O)CCCCCC2 | 10
CCCCn1c2c(cc(C(=O)NC(C)C)c1=O)CCCCCC2 | 148
CCCCn1c2c(cc(C(=O)NCCc3ccccc3)c1=O)CCCCCC2 | 568
CCCCn1c2c(cc(C(=O)NC3CCCCC3)c1=O)CCCCCC2 | 95
CCCCn1c2c(cc(C(=O)NCc3ccccc3)c1=O)CCCCCC2 | 593

In: Query Ratio Ki for CCCCn1c2c(cc(C(=O)NCc3ccccc3)c1=O)CCCC2
Out: 44

In: Query Ratio Ki for CCCCn1c2c(cc(C(=O)NCc3ccccc3)c1=O)CCC2
Out: 8.9

In: Query Ratio Ki for CCCCn1c(CC)c(C)cc(C(=O)NCc2ccccc2)c1=O
Out: 16

====

# Tested System: Cannabinoid receptor 1 (Homo sapiens, UniProt P21554)
# Sequence (P21554 whole entry): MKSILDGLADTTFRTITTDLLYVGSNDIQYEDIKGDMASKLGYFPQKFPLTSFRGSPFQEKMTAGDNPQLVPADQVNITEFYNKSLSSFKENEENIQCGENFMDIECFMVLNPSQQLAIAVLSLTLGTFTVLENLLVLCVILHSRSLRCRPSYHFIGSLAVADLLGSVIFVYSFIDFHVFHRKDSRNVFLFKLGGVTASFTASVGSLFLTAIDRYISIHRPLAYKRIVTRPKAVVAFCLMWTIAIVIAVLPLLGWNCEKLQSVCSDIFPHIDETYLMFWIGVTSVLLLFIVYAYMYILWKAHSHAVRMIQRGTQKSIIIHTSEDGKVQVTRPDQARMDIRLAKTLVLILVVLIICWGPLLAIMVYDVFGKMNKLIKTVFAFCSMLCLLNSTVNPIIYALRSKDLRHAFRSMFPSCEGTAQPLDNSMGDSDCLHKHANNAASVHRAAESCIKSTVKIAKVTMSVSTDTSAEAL
The label is 1 for Ki below 300 nM and 0 for Ki equal to or exceeding 300 nM.

CCCCn1c2c(cc(C(=O)NC(C)C)c1=O)CCCCCC2 | 0
CCCCn1c(CC)c(C)cc(C(=O)NCc2ccccc2)c1=O | 0
CC(C)CCn1c2c(cc(C(=O)NCc3ccccc3)c1=O)CCCCCC2 | 1
CCCCn1c2c(cc(C(N)=O)c1=O)CCCCCC2 | 0
CCCCn1c(C)c(C)cc(C(=O)NCc2ccccc2)c1=O | 0
CCCCn1c2c(cc(C(=O)NCc3ccccc3)c1=O)CCC2 | 1

Pending molecule:
In: Quick check: does CCCCn1c2c(cc(C(=O)NCc3ccccc3)c1=O)CCCC2 have Ki under 300 nM?
Out: 0

====

# Procedure Details: Volume of distribution at steady state in mouse at 1 mg/kg, iv
# Type: ADME, organism-based
# Set-up: dose 1 mg/kg, route intravenous
# Measurement Context: in vivo, read-out: Vdss
Endpoint Label: Vd
The answer should read as a number with its unit following.

In: Query Vd for CCCCn1c2c(cc(C(=O)NC3CCCCC3)c1=O)CCCCCC2
Out: 0.89 L/kg

====

# Tested System: UniProt:P34972
Form field: pKi (one value per entry).
The scale used: pKi is minus the common logarithm of the concentration in molar units.

CCCCn1c2c(cc(C(N)=O)c1=O)CCCCCC2 | 7.40
CCCCn1c2c(cc(C(=O)NCc3ccccc3)c1=O)CCCC2 | 7.77
O=C(NCc1ccccc1)c1cc2c(n(CCCN3CCOCC3)c1=O)CCCCCC2 | 6.68
CCCCn1c2c(cc(C(=O)NCc3ccccc3)c1=O)CCC2 | 7.80
CC(C)CCn1c2c(cc(C(=O)NCc3ccccc3)c1=O)CCCCCC2 | 9.05
CCCCn1c(CC)c(C)cc(C(=O)NCc2ccccc2)c1=O | 7.70

In: Query pKi for CCCCn1c2c(cc(C(=O)NCc3ccccc3)c1=O)COCC2
Out: 6.69

In: Query pKi for CCCCn1c(C)c(C)cc(C(=O)NCc2ccccc2)c1=O
Out: 7.18

In: Query pKi for CCCCn1c2c(cc(C(=O)NC3CCN(C)CC3)c1=O)CCCCCC2
Out: 6.83

In: Query pKi for CCCCn1c2c(cc(C(=O)NC(C)C)c1=O)CCCCCC2
Out: 8.40

====

# Procedure Details: Half life in mouse at 2 mg/kg, iv
# Format: ADME, organism-based
# Parameters: dose 2 mg/kg, route intravenous
# Measurement Context: in vivo
Endpoint Label: half-life (min)
# output: bare number, implied unit min

In: Query half-life for CCCCn1c2c(cc(C(=O)NCc3ccccc3)c1=O)CCCCCC2
Out: 16.8
